// provenance: the RNAGym collection of RNA variant scans (doi:10.1021/acssynbio.7b00057)

Give aptazyme ON/OFF ratio for every item shown.
B1: Pistol ribozyme (parent)
chain: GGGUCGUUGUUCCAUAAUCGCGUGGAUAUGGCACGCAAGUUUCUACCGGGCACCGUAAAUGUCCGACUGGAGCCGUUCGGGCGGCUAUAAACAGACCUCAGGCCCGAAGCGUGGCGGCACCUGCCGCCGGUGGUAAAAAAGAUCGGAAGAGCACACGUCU

# Variants of: B1
# Experiment summary: aptazyme ON/OFF ratio, guanine; higher = stronger switching; co-transcriptional cleavage with and without guanine
Numbers only.

Examples with answers:
U8G G9A U10C U11A C12G	1.14
U8C G9U U10G U11A C12U C13G	1.16
U7G U8A G9U U10C U11A C12G C13G	1.07
U7C U8A G9A U10C U11C C12A	1.09
U7G U8C G9C U10C U11A C13G	1.11

# return aptazyme ON/OFF ratio for each item in the list
1. G9C U10A U11A C12A
2. U8A G9C U11A C12A

output:
1: 1.52; 2: 1.19
